- measured.target: T1, HLA class I molecule A02.01
- T1 construct: Purified MHC class I complex; also called HLA-A02:01
- assay.method.text: competition binding assay with purified class I MHC: test peptide at varying concentrations displaces a radiolabeled reference peptide, read by size exclusion gel filtration; column 'Observed MHC Affinity (nM)'
endpoint.label: IC50 (nM)
Write down the numeric answer in nM and omit the unit.

Query: Form field: reported IC50 of SMLTGPPARV (also called GATA3 . . ; CSNH)
Reply: 14
